# test_method_notes: Ex vivo biodistribution of 177Lu-labeled ligands in PC-3 tumor-bearing mice
# condition_summary: mouse, large intestine, intravenous, 1 h pi, n = 5; read-out: Large intestine uptake
readout_kind: tissue uptake at 1 h (%ID/g)
Dear colleague, please return just the value in %ID/g, with no unit written.

- molecule: "CC(C)C[C@@H](CN1CC(F)(F)C[C@H]1C(N)=O)NC(=O)[C@H](Cc1c[nH]cn1)NC(=O)CN(C)C(=O)[C@@H](NC(=O)[C@H](C)NC(=O)[C@H](Cc1c[nH]c2ccccc12)NC(=O)[C@H](CCC(N)=O)NC(=O)[C@@H](Cc1ccccc1)NC(=O)CN1CCC(NC(=O)CN2CCN(CC(=O)O)CCN(CC(=O)O)CCN(CC(=O)O)CC2)CC1)C(C)C [[^177Lu]Lu-LW02080, metal not drawn]"
  recorded_measurement: 0.17

Give recorded tissue uptake at 1 h. CC(C)C[C@H](NC(=O)[C@H](Cc1cnc[nH]1)N(C)C(=O)CNC(=O)[C@@H](NC(=O)[C@H](C)NC(=O)[C@H](Cc1c[nH]c2ccccc12)NC(=O)[C@H](CCC(N)=O)NC(=O)[C@@H](Cc1ccccc1)NC(=O)CN1CCC(NC(=O)CN2CCN(CC(=O)O)CCN(CC(=O)O)CCN(CC(=O)O)CC2)CC1)C(C)(C)C)C(=O)N1CC(F)(F)C[C@H]1C(N)=O [[^177Lu]Lu-LW02060, metal not drawn]
0.49
